Reported αvβ3 signal values for the following binders.
Target: T1, integrin αVβ3 (UniProt P06756 31-992; P05106 27-718)
T1 construct: Coated on the ELISA plate
T1 sequence (P06756 31-992, chain 1 of 2): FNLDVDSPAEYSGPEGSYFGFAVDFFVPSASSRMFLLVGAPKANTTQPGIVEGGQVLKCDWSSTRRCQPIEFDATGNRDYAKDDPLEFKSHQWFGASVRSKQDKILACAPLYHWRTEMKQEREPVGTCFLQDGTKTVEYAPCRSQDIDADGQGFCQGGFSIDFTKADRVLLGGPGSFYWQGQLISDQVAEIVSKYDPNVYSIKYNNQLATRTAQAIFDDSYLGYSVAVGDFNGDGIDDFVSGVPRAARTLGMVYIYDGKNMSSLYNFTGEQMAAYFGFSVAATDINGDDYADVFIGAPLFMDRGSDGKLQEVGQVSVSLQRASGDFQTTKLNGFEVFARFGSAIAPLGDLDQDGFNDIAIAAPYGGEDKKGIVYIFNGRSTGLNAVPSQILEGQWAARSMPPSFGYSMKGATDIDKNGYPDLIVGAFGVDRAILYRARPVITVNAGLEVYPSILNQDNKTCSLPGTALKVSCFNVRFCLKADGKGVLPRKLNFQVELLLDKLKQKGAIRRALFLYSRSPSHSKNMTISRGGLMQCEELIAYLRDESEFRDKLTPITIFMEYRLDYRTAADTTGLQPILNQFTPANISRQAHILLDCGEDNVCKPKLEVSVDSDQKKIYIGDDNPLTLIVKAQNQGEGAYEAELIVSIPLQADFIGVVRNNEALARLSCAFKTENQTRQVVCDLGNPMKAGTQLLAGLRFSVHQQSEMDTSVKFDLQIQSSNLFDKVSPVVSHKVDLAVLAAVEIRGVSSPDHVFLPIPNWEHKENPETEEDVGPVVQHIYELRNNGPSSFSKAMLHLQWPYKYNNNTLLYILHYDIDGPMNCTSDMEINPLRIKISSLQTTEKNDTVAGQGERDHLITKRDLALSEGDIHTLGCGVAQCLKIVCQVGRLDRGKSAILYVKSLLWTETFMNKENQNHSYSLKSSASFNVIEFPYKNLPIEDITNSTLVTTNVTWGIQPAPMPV
T1 sequence (P05106 27-718, chain 2 of 2): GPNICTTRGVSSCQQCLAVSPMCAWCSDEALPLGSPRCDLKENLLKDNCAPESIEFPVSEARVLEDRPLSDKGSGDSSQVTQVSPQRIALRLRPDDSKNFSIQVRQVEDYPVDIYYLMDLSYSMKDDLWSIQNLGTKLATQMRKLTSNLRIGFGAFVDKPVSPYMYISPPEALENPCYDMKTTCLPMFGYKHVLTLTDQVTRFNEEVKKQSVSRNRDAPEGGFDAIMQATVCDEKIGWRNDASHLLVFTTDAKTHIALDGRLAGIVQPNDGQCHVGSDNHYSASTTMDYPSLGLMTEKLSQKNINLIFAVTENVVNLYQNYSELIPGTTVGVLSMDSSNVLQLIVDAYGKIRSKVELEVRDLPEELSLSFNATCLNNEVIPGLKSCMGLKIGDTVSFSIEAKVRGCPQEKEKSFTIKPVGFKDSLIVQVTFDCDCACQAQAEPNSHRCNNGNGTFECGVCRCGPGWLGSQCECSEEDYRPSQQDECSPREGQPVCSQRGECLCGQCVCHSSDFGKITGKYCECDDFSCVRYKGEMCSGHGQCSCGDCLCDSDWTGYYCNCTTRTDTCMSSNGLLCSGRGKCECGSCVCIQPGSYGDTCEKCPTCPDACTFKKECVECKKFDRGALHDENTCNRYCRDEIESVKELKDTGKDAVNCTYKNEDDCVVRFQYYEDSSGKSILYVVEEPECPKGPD
Test: ELISA, coated integrin, anti-MICA-HRP
Only the number, expressed in OD, is required.

>  <BINDER>
soluble MICA generated from pKK45 (loop 1 insert extended 3.3sp) (designed binder, From pKK34 (His6, Glu125); secreted by 293T cells; also called 1-3.3sp) HHHHHHEPHSLRYNLTVLSWDGSVQSGFLTEVHLDGQPFLRCDRQKCRAKPQGQWAEDVLGNKTWDRETRDLTGNGKDLRMTLAHIKDQKEGLHSLQEIRVCEIHEDNSTRSSQHFYYDGELFLSQNLETEEWTMPQSSRAQTLAMNVRNFLKEDAMKTKTHYHAMHADCLQELRRYLKSGVVLRRTVPPMVNVTSGGSGGGSRVPRGDSDLTSGGSGGGVTCRASGFYPWNITLSWRQDGVSLSHDTQQWGDVLPDGNGTYQTWVATRICQGEEQRFTCYMEHSGNHSTHPVPSGK

>  <αvβ3 signal / OD>
0.393

$$$$
>  <BINDER>
soluble MICA generated from pKK49 (loop 3 insert extended 3.3sp) (designed binder, From pSW276 (no N-terminal His tag, Lys125); secreted by 293T cells; also called 3-3.3sp) EPHSLRYNLTVLSWDGSVQSGFLTEVHLDGQPFLRCDRQKCRAKPQGQWAEDVLGNKTWDRETRDLTGNGKDLRMTLAHIKDQKEGLHSLQEIRVCEIHEDNSTRSSQHFYYDGELFLSQNLETKEWTMPQSSRAQTLAMNVRNFLKEDAMKTKTHYHAMHADCLQELRRYLKSGVVLRRTVPPMVNVTRSEASEGNITVTCRASGFYPWNITLSWRQDGVSLSHDTQQWGDVLPDGNGTYQTWVATRISGGSGGGSRVPRGDSDLTSGGSGGGCYMEHSGNHSTHPVPSGK

>  <αvβ3 signal / OD>
0.508

$$$$
>  <BINDER>
soluble MICA generated from pKK44 (loop 1 insert extended 3.2sp) (designed binder, From pKK34 (His6, Glu125); secreted by 293T cells; also called 1-3.2sp) HHHHHHEPHSLRYNLTVLSWDGSVQSGFLTEVHLDGQPFLRCDRQKCRAKPQGQWAEDVLGNKTWDRETRDLTGNGKDLRMTLAHIKDQKEGLHSLQEIRVCEIHEDNSTRSSQHFYYDGELFLSQNLETEEWTMPQSSRAQTLAMNVRNFLKEDAMKTKTHYHAMHADCLQELRRYLKSGVVLRRTVPPMVNVTSGGSGGGSTSRGDHPRTQSGGSGGGVTCRASGFYPWNITLSWRQDGVSLSHDTQQWGDVLPDGNGTYQTWVATRICQGEEQRFTCYMEHSGNHSTHPVPSGK

>  <αvβ3 signal / OD>
0.41

$$$$
>  <BINDER>
soluble MICA generated from pKK52 (tight loop 1 insert T-3.1) (designed binder, From pSW324 (from pKK34: His6, Glu125); secreted by 293T cells; also called 1-T-3.1) HHHHHHEPHSLRYNLTVLSWDGSVQSGFLTEVHLDGQPFLRCDRQKCRAKPQGQWAEDVLGNKTWDRETRDLTGNGKDLRMTLAHIKDQKEGLHSLQEIRVCEIHEDNSTRSSQHFYYDGELFLSQNLETEEWTMPQSSRAQTLAMNVRNFLKEDAMKTKTHYHAMHADCLQELRRYLKSGVVLRRTVPPMVNTSRGDHPRTQCRASGFYPWNITLSWRQDGVSLSHDTQQWGDVLPDGNGTYQTWVATRICQGEEQRFTCYMEHSGNHSTHPVPSGK

>  <αvβ3 signal / OD>
0.391

$$$$

Below: the item to evaluate.
Return reported αvβ3 signal; argument: soluble MICA generated from pKK38 (loop 1 insert 3.3) (designed binder, From pKK34 (His6, Glu125); secreted by 293T cells; also called 1-3.3) HHHHHHEPHSLRYNLTVLSWDGSVQSGFLTEVHLDGQPFLRCDRQKCRAKPQGQWAEDVLGNKTWDRETRDLTGNGKDLRMTLAHIKDQKEGLHSLQEIRVCEIHEDNSTRSSQHFYYDGELFLSQNLETEEWTMPQSSRAQTLAMNVRNFLKEDAMKTKTHYHAMHADCLQELRRYLKSGVVLRRTVPPMVNVTRVPRGDSDLTVTCRASGFYPWNITLSWRQDGVSLSHDTQQWGDVLPDGNGTYQTWVATRICQGEEQRFTCYMEHSGNHSTHPVPSGK
0.291
